Experiment: The drug is tested on Z-005 corresponding to metagenome with ENA study accession number: PRJEB37062 and ENA sample accession number: ERS12561805 for biotransformation under anaerobic condition. The drug concentrations were measured over 9 timepoints collected between 0 and 24 hours of incubation by liquid-chromatography-coupled mass spectrometry (LC–MS); also: call rule not given here
Details: 2 µM
metric: Bacterial Biotransformation

| compound | endpoint_result |
| --- | --- |
| O=C1NCC2(CCN(CCc3ccccc3)CC2)O1 [FENSPIRIDE] | Compound NOT metabolized |
| CCOC(=O)[C@H](CCc1ccccc1)N[C@@H](C)C(=O)N1[C@H](C(=O)O)C[C@@H]2CCC[C@@H]21 | Compound metabolized |
| Cc1ccc(/C(=C\CN2CCCC2)c2ccccn2)cc1 | Compound NOT metabolized |
| CC(=O)O[C@]1(C(C)=O)CC[C@H]2[C@@H]3C=C(Cl)C4=CC(=O)[C@@H]5C[C@@H]5[C@]4(C)[C@H]3CC[C@@]21C [CYPROTERONE ACETATE] | Compound metabolized |
| CC[C@@H](CO)NC(=O)[C@@H]1C=C2c3cccc4c3c(cn4C)C[C@H]2N(C)C1.O=C(O)/C=C\C(=O)O [METHYSERGIDE MALEATE] | Compound NOT metabolized |
| NC12CC3CC(CC(C3)C1)C2 | Compound NOT metabolized |
| O=C(O)CCc1nc(-c2ccccc2)c(-c2ccccc2)o1 | Compound metabolized |
| OCCOCCN1CCN(C2=Nc3ccccc3Sc3ccccc32)CC1 | Compound NOT metabolized |

###

Test: The drug is tested on Z-024 corresponding to pig gut metagenome with ENA study accession number: PRJEB37062 and ENA sample accession number: ERS12561823 for biotransformation under anaerobic condition. The drug concentrations were measured over 9 timepoints collected between 0 and 24 hours of incubation by liquid-chromatography-coupled mass spectrometry (LC–MS)
Settings: 2 µM
metric: Bacterial Biotransformation

| compound | metric | endpoint_result |
| --- | --- | --- |
| CCN(CC)CCNC(C(=O)OCCC(C)C)c1ccccc1.Cl.Cl (stereo not drawn) | Bacterial Biotransformation | Compound metabolized |
| O=C(O)COCCN1CCN(C(c2ccccc2)c2ccc(Cl)cc2)CC1 (stereo not drawn) | Bacterial Biotransformation | Compound metabolized |
| C[C@@H]1C[C@H]2[C@@H]3CCC4=CC(=O)C=C[C@]4(C)[C@@]3(F)[C@@H](O)C[C@]2(C)[C@@]1(O)C(=O)CO | Bacterial Biotransformation | Compound metabolized |
| Cc1ccccc1N1C(=O)c2cc(S(N)(=O)=O)c(Cl)cc2NC1C (stereo not drawn) | Bacterial Biotransformation | Compound NOT metabolized |
| CCC(=O)NCC[C@@H]1CCc2ccc3c(c21)CCO3 | Bacterial Biotransformation | Compound metabolized |
| CCCCC(=O)N(Cc1ccc(-c2ccccc2-c2nnn[nH]2)cc1)[C@H](C(=O)O)C(C)C | Bacterial Biotransformation | Compound NOT metabolized |
| CO[C@]12C[C@@H](COC(=O)c3cncc(Br)c3)CN(C)[C@@H]1Cc1cn(C)c3cccc2c13 | Bacterial Biotransformation | Compound metabolized |
| CC(C)(Oc1ccc(CCNC(=O)c2ccc(Cl)cc2)cc1)C(=O)O [BEZAFIBRATE] | Bacterial Biotransformation | Compound metabolized |

###

Details: human gut metagenome, 24 h, 2 µM

| compound | Bacterial Biotransformation |
| --- | --- |
| CCCC(=O)Nc1ccc(OCC(O)CNC(C)C)c(C(C)=O)c1 (centres undefined) | Compound metabolized |
| CCOc1ccc(NC(C)=O)cc1 | Compound NOT metabolized |
| C#C[C@]1(O)CC[C@H]2[C@@H]3CCC4=CC(=O)CC[C@@H]4[C@H]3CC[C@@]21CC | Compound metabolized |
| CNC(=C[N+](=O)[O-])NCCSCc1csc(CN(C)C)n1 | Compound metabolized |
| NC(CO)(CO)CO.O=C(c1ccccc1)c1ccc2n1CCC2C(=O)O (centres undefined) | Compound metabolized |
| COc1cc2c(c(OC)c1OC)-c1ccc(OC)c(=O)cc1[C@@H](NC(C)=O)CC2 | Compound metabolized |
| CN(C)CCc1c[nH]c2ccc(Cn3cncn3)cc12.O=C(O)c1ccccc1 [RIZATRIPTAN BENZOATE] | Compound NOT metabolized |
| COc1cc2nc(N(C)CCCNC(=O)C3CCCO3)nc(N)c2cc1OC (centres undefined) | Compound metabolized |
| O=C(NCc1ccccc1)OCCO [BURAMATE] | Compound NOT metabolized |
| O=c1[nH]c2ccccc2n1C1CCN(CCCC(c2ccc(F)cc2)c2ccc(F)cc2)CC1 [PIMOZIDE] | Compound NOT metabolized |
| CNCCC(Oc1ccc(C(F)(F)F)cc1)c1ccccc1 (centres undefined) | Compound NOT metabolized |
| O=c1n(CCCN2CCN(c3cccc(Cl)c3)CC2)nc2ccccn12 | Compound NOT metabolized |
| CCC(COC(=O)c1cc(OC)c(OC)c(OC)c1)(c1ccccc1)N(C)C.O=C(O)/C=C\C(=O)O (centres undefined) | Compound NOT metabolized |
| CC(C(=O)O)c1ccc2c(c1)Cc1cccnc1O2 (centres undefined) | Compound metabolized |
| CCOC(=O)[C@H](CCc1ccccc1)N[C@@H](C)C(=O)N1[C@H](C(=O)O)C[C@H]2CCCC[C@@H]21 | Compound metabolized |
| CCc1nn(CCCN2CCN(c3cccc(Cl)c3)CC2)c(=O)n1CCOc1ccccc1 | Compound NOT metabolized |
| O=C1NCC2(CCN(CCc3ccccc3)CC2)O1 [FENSPIRIDE] | Compound NOT metabolized |
| CN1CCOC(c2ccccc2)c2ccccc2C1 (centres undefined) | Compound NOT metabolized |
| CCC(=O)NCC[C@@H]1CCc2ccc3c(c21)CCO3 | Compound NOT metabolized |
